assay: Pharmacokinetics and total colon distribution after oral administration; format: in vivo; conditions: male, C57BL/6, mouse, blood; mice, oral 5 mg/kg, dosed compound measured, 2 h; read-out: Mean blood concentration
parameterMeasured: concentration at 2 h (ng/mL)
Write the value in ng/mL as a bare number.

Lookup result for COc1cc(Nc2cc(Oc3ccc(NC(=O)Nc4cc(C(C)(C)C)cc(NS(C)(=O)=O)c4OC)c4ccccc34)ccn2)ccc1C(=O)NCCOCCOCCOP(=O)(O)O [Example 19] ; measured concentration at 2 h: 0

----------
system: Jurkat cells; test: (r) Cell cytotoxicity assay; type: cell-based, human; conditions: 20 μg/mL, 24 hours
Provide the reported % Viability at 20 μg/mL of each item.
Respond with the figure and its unit, in that order.

Lookup result for `COc1cc(Nc2cc(Oc3ccc(NC(=O)Nc4cc(C(C)(C)C)cc(NS(C)(=O)=O)c4OC)c4ccccc34)ccn2)ccc1C(=O)NCCN1CCCCC1` ; measured % Viability at 20 μg/mL: 1.5%

Lookup result for `COc1cc(Nc2cc(Oc3ccc(NC(=O)Nc4cc(C(C)(C)C)cc(NS(C)(=O)=O)c4OC)c4ccccc34)ccn2)ccc1C(=O)NCCO` ; measured % Viability at 20 μg/mL: 19.5%

Lookup result for `COCCN(C)CCNC(=O)c1ccc(Nc2cc(Oc3ccc(NC(=O)Nc4cc(C(C)(C)C)cc(NS(C)(=O)=O)c4OC)c4ccccc34)ccn2)cc1OC` ; measured % Viability at 20 μg/mL: 0.4%

Lookup result for `COc1c(NC(=O)Nc2ccc(Oc3ccnc(Nc4ccc(C(=O)O)c(N(C)C)c4)c3)c3ccccc23)cc(C(C)(C)C)cc1NS(C)(=O)=O` ; measured % Viability at 20 μg/mL: 32.5%

Lookup result for `COc1cc(Nc2cc(Oc3ccc(NC(=O)Nc4cc(C(C)(C)C)cc(NS(C)(=O)=O)c4OC)c4ccccc34)ccn2)ccc1C(=O)NCC1CCN(C)CC1` ; measured % Viability at 20 μg/mL: 0.4%

Lookup result for `COc1cc(Nc2cc(Oc3ccc(NC(=O)Nc4cc(C(C)(C)C)cc(NS(C)(=O)=O)c4OC)c4ccccc34)ccn2)cc(OC)c1C(=O)NCCC1CCN(C)CC1` ; measured % Viability at 20 μg/mL: 86.6%

Lookup result for `COc1cc(Nc2cc(Oc3ccc(NC(=O)Nc4cc(C(C)(C)C)cc(NS(C)(=O)=O)c4OC)c4ccccc34)ccn2)ccc1C(=O)NCCC(=O)O` ; measured % Viability at 20 μg/mL: 90.1%

Lookup result for `COc1cc(Nc2cc(Oc3ccc(NC(=O)Nc4cc(C(C)(C)C)cc(NS(C)(=O)=O)c4OC)c4ccccc34)ccn2)ccc1C(=O)NC[C@H](O)[C@@H](O)[C@H](O)[C@H](O)CO` ; measured % Viability at 20 μg/mL: 92.4%

Lookup result for `COc1cc(Nc2cc(Oc3ccc(NC(=O)Nc4cc(C(C)(C)C)cc(NC(=O)COP(=O)(O)O)c4OC)c4ccccc34)ccn2)ccc1C(=O)NCCN1CC[S+]([O-])CC1` ; measured % Viability at 20 μg/mL: 94.7%

Lookup result for `COc1cc(Nc2nccc(Oc3ccc(NC(=O)Nc4cc(C(C)(C)C)cc(NS(C)(=O)=O)c4OC)c4ccccc34)n2)ccc1C(=O)NCCN1CCN(C)CC1` ; measured % Viability at 20 μg/mL: 1.3%

Lookup result for `COc1cc(Nc2cc(Oc3ccc(NC(=O)Nc4cc(C(C)(C)C)cc(NS(C)(=O)=O)c4OC)c4ccccc34)ccn2)cc(OC)c1C(=O)NCCOCCOCCOP(=O)(O)O` ; measured % Viability at 20 μg/mL: 97.8%

Lookup result for `COc1cc(Nc2cc(Oc3ccc(NC(=O)Nc4cc(C(C)(C)C)cc(NS(C)(=O)=O)c4OC)c4ccccc34)ccn2)ccc1-n1ccccc1=O` ; measured % Viability at 20 μg/mL: 99.0%
